Target: Cysteinyl leukotriene receptor 1 (Cavia porcellus)
Experiment: In vitro for antagonistic activity against LTD4 receptor in guinea pig ileum
Binarize IC50 at 6 nM; below is TRUE, at or above is FALSE.

CCC(CC)(CC(=O)O)C(=O)Nc1cccc(OCc2ccc3ccc(F)cc3n2)c1
FALSE
CCC(CC)(CC(=O)Nc1cccc(OCc2ccc3c(F)cccc3n2)c1)C(=O)O
TRUE
CCC(CC)(CC(=O)Nc1cccc(OCc2ccc3ccc(OC(F)(F)F)cc3n2)c1)C(=O)O
FALSE
CCC(CC)(CC(=O)Nc1cccc(OCc2ccc3cc4c(cc3n2)CCC4)c1)C(=O)O
FALSE
CCCCC(CCCC)(CC(=O)Nc1cccc(OCc2ccc3ccc(F)cc3n2)c1)C(=O)O
TRUE
O=C(CC1(C(=O)O)CCCCC1)Nc1cccc(OCc2ccc3ccc(F)cc3n2)c1
FALSE
CCC(CC)(CC(=O)Nc1cccc(COc2ccc3ccccc3n2)c1)C(=O)O
FALSE
CCC(CC)(CC(=O)Nc1cccc(OCc2ccc3ccc(C(C)=O)cc3n2)c1)C(=O)O
FALSE
CCC(CC)(CC(=O)Nc1cccc(OCc2ccc3cc(F)ccc3n2)c1)C(=O)O
TRUE
CCC(CC)(CC(=O)Nc1cccc(OCc2ccc3ccc(F)cc3n2)c1)C(=O)O
TRUE
CCC(CC)(CC(=O)Nc1cccc(OCc2ccc3ccc(C(F)(F)F)cc3n2)c1)C(=O)O
TRUE
